target: ZNF721 DBD2 (Homo sapiens, UniProt Q8TF20-2 395-923); test: HT-SELEX; 20 mM HEPES pH 7, 140 mM KCl, 5 mM NaCl, 1 mM K2HPO4, 2 mM MgSO4, 100 uM EGTA, ZnSO4, 0.1% Tween20; room temperature, 1 h; high values mean tight binding; conditions: protein: ivt; tags: eGFP (N-terminal); dsDNA, one strand shown
Sequence (Q8TF20 383-911): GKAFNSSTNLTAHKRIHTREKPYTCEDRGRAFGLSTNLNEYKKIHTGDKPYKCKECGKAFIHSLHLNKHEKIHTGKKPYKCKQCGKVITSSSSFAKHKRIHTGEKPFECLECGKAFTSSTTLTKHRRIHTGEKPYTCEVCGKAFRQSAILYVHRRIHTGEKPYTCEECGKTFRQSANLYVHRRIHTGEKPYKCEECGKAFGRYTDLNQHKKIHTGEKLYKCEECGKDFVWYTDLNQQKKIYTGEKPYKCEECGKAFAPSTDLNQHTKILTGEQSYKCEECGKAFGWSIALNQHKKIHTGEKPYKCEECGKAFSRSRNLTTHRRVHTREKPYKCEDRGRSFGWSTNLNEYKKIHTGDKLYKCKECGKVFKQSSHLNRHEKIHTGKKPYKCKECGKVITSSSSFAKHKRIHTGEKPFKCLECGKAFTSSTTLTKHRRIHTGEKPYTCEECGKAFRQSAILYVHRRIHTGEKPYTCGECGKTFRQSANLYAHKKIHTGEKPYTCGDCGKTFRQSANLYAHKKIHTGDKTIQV
Below: a set of entries, each annotated with reported binding signal.
State just the number; it will be interpreted in relative 10-mer count.

Illustrative cases are given below, each with its answer.
* GGAGGGGGGA | 0.00336
* CCCCCATCCC | 0.00384
* ATCCCCACCC | 0.00515
* CCACCGCCCA | 0.00575
* CAAAAAGCAG | 0.172
* ACCCCACCGC | 0.00336

Would you mind telling me what binding signal value was observed for CCGCCCCCCG ?
0.0024

Please do the same for AAAAAAAAGC as well.
0.125

Please do the same for AAAACAGTGT as well.
0.712

Please do the same for AAACAGTGTC as well.
0.209

Please do the same for GCCCACCCCC as well.
0.00779

Please do the same for CAGCATCCCC as well.
0.154

Please do the same for CCACCACACC as well.
0.00587

====

biological target: ZNF721 DBD2 (Homo sapiens, UniProt Q8TF20-2 395-923); experiment: HT-SELEX; 20 mM HEPES pH 7, 140 mM KCl, 5 mM NaCl, 1 mM K2HPO4, 2 mM MgSO4, 100 uM EGTA, ZnSO4, 0.1% Tween20; room temperature, 1 h; high values mean tight binding; details: protein: ivt; tags: eGFP (N-terminal); dsDNA, one strand shown
Below: a set of entries, each annotated with reported log10(binding signal).
Base-10 log of binding signal, unit relative 10-mer count.

Illustrative cases are given below, each with its answer.
- AAGCATACCC: -1.61
- GAGACACTGC: -0.89
- AGCATGACCA: -0.63
- GGGGTGGGGA: -2.58
- AAAAAAAGGC: -0.93

Would you mind telling me what log10(binding signal) value was observed for CTGCTTTTTC ?
-0.71

Please do the same for CAAAACAGCG as well.
-0.75

Please do the same for CCCCACCACG as well.
-2.21

Please do the same for ACAGCATATC as well.
-0.76

====

target: ZNF721 DBD1 (Homo sapiens, UniProt Q8TF20-2 29-461); assay: HT-SELEX; 20 mM HEPES pH 7, 140 mM KCl, 5 mM NaCl, 1 mM K2HPO4, 2 mM MgSO4, 100 uM EGTA, ZnSO4, 0.1% Tween20; room temperature, 1 h; high values mean tight binding; conditions: protein: ivt; tags: eGFP (N-terminal); dsDNA, one strand shown
Sequence (Q8TF20 17-449): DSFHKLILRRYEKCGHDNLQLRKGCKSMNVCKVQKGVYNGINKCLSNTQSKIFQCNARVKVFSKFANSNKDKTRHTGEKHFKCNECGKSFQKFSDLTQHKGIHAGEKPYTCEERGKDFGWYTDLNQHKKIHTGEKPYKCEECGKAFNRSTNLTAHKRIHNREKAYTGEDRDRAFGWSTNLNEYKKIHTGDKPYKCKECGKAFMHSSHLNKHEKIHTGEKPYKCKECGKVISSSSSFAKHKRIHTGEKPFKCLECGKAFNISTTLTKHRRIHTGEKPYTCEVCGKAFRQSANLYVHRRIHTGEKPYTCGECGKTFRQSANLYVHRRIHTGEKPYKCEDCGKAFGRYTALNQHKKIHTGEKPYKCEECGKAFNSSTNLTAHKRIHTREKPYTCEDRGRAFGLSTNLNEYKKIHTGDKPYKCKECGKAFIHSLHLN
# if value of binding signal reaches 0.006 relative 10-mer count, tag satisfied; if it stays below, tag not satisfied

As a guide, the following entries are already answered.
* ACCCCCCCGC | not satisfied
* CCCCCTCCTC | not satisfied
* CAACCCCCCC | not satisfied
* AGCGTCTCCT | satisfied
* CCCCGACCCC | satisfied

Please check the record AAACAGCGTA and state if its binding signal is at or above 0.006 relative 10-mer count.
not satisfied

Please do the same for AGGATACCCT as well.
not satisfied

Please do the same for GTGGTGGGGA as well.
satisfied

Please do the same for CAGCATACCC as well.
not satisfied

Please do the same for CCACCGACCC as well.
not satisfied
